Data provenance: patent EP3964526A1

# maps each entry to its pKd
Molecular target: T1, recombinant human VEGF165 (PeproTech EC Ltd.) (human, UniProt P15692-4 27-191)
T1 construct: Amine-coupled to a CM4 sensor chip; also called hVEGF165
T1 sequence (P15692 other isoform, or with tags, fused parts or gaps limits assumed): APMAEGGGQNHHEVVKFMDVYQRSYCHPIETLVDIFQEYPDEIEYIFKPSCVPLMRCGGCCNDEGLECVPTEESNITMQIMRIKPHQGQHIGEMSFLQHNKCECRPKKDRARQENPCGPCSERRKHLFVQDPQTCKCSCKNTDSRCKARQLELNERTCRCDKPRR
Experiment: SPR BIAcore T100, hVEGF165 amine-coupled on CM4 chip, scFv as analyte
# log scale: pKd equals minus log10 of the concentration in mol/L

Field: example entries. Status: answers known.
binder: 511-max (scFv) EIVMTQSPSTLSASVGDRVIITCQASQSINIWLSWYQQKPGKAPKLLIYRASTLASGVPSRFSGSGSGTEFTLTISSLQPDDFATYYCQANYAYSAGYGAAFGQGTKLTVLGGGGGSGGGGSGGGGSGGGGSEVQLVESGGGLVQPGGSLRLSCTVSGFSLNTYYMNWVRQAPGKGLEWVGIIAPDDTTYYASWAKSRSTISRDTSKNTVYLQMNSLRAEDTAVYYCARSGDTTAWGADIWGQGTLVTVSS
pKd: 10.18

binder: 375-min (scFv) EIVMTQSPSTLSASVGDRVIITCQASENINIWLSWYQQKPGKAPKLLIYQASKLASGVPSRFSGSGSGAEFTLTISSLQPDDFATYYCQNNYSYNRYGAPFGQGTKLTVLGGGGGSGGGGSGGGGSGGGGSEVQLVESGGGLVQPGGSLRLSCAASGFSFTTTDYMCWVRQAPGKGLEWVSCILAGDGSTYYANWAKGRFTISRDNSKNTLYLQMNSLRAEDTAVYYCAKSDPASSWSFALWGQGTLVTVSS
pKd: 8.27

Okay, now this binder:
# input binder: 375-max (scFv) EIVMTQSPSTLSASVGDRVIITCQASENINIWLSWYQQKPGKAPKLLIYQASKLASGVPSRFSGSGSGTQFTLTISSLQPDDFATYYCQNNYSYNRYGAPFGQGTKLTVLGGGGGSGGGGSGGGGSGGGGSEVQLVESGGGLVQPGGSLRLSCKASGFSFTTTDYMCWVRQAPGKGLEWVGCILAGDGSTYYANWAKGRFTGSKDTSKNTVYLQMNSLRAEDTAVYYCARSDPASSWSFALWGQGTLVTVSS ; wanted: its pKd
8.57
